Herbicidal rating SAGPY values by entry
Tested on: SAGPY (Arrowhead (Pygmaea))
Experiment: Postemergence weed control under flooded paddy conditions
Assay type: in vivo, Sagittaria pygmaea
Conditions: Rate 0.0625 kg/ha, postemergence weeds, rated 3 to 4 weeks after treatment
Lab note: jot the number down without any unit.

Use the examples below as a reference point.
CN1C(=O)C(CC(=O)OCCF)SC1=Nc1cc(-n2c(=O)cc(C(F)(F)F)n(C)c2=O)c(F)cc1Cl (centres unmarked); 0.0
C=CCN1C(=O)C(CC(=O)NS(=O)(=O)CC)SC1=Nc1cc(-n2c(=O)cc(C(F)(F)F)n(C)c2=O)c(F)cc1Cl (centres unmarked); 9.0
C=CCN1C(=O)C(CC(=O)OC)SC1=Nc1cc(-n2c(=O)cc(C(F)(F)F)n(C)c2=O)c(F)cc1Cl (centres unmarked); 3.0
C=CCN1C(=O)C(CC(=O)NS(=O)(=O)c2ccccc2)SC1=Nc1cc(-n2c(=O)cc(C(F)(F)F)n(C)c2=O)c(F)cc1Cl (centres unmarked); 0.0

Let's switch to this compound now.
State its Herbicidal rating SAGPY: C#CCOC(=O)CC1SC(=Nc2cc(-n3c(=O)cc(C(F)(F)F)n(C)c3=O)c(F)cc2Cl)N(CC=C)C1=O (centres unmarked)
4.0

----------
Documented Preemergence herbicidal rating ECHCG across a set of compounds
Tested on: ECHCG (Barnyardgrass)
Test: Preemergence herbicidal evaluation
Type: in vivo, Echinochloa crus-galli
Details: rate 0.1250 kg/ha; rated 4-5 weeks after treatment
The answer should be a number; do not append a unit.

Recorded results for 2 compounds are shown here.
C#CCOC(=O)CN1C(=O)CSC1=Nc1cc(-n2c(=O)cc(C(F)(F)F)n(C)c2=O)c(F)cc1Cl [Compound 115]; 0.0
CCOC(=O)CN1C(=O)C(C(=O)OC)SC1=Nc1cc(-n2c(=O)cc(C(F)(F)F)n(C)c2=O)c(F)cc1Cl (stereo not drawn) [Compound 128]; 0.0

Turning now to a further compound:
Report value only: Preemergence herbicidal rating ECHCG, ECHCG (Barnyardgrass), COC(=O)CCCN1C(=O)CSC1=Nc1cc(-n2c(=O)cc(C(F)(F)F)n(C)c2=O)c(F)cc1Cl [Compound 29]
0.0

----------
Below: a set of entries, each annotated with reported Preemergence herbicidal rating ZEAMX.
System: ZEAMX (Corn, Field)
Assay: Preemergence herbicidal evaluation
Format: in vivo, Zea mays
Details: rate 0.1250 kg/ha; rated 4-5 weeks after treatment; rating scale 0-9
# respond with the number and nothing more

Cn1c(C(F)(F)F)cc(=O)n(-c2cc(N=C3SCC(=O)N3Cc3ccccn3)c(Cl)cc2F)c1=O; 0.0
Cn1c(C(F)(F)F)cc(=O)n(-c2cc(N=C3SCC(=O)N3Cc3ccc(Cl)c(Cl)c3)c(Cl)cc2F)c1=O; 0.0
Cn1c(C(F)(F)F)cc(=O)n(-c2cc(N=C3SCC(=O)N3Cc3ccncc3)c(Cl)cc2F)c1=O; 0.0
CCOC(=O)CN1C(=O)C(Br)SC1=Nc1cc(-n2c(=O)cc(C(F)(F)F)n(C)c2=O)c(F)cc1Cl (stereo not drawn); 0.0

Fill in reported Preemergence herbicidal rating ZEAMX for this entry: CCOC(=O)CN1C(=O)C(COC)SC1=Nc1cc(-n2c(=O)cc(C(F)(F)F)n(C)c2=O)c(F)cc1Cl (stereo not drawn)
2.0

Using the record for Cn1c(C(F)(F)F)cc(=O)n(-c2cc(N=C3SCC(=O)N3Cc3ccc(F)cc3)c(Cl)cc2F)c1=O , state its measured Preemergence herbicidal rating ZEAMX.
9.0

----------
compounds and their reported ABUTH herbicidal rating
System: ABUTH (Velvetleaf)
Assay: Postemergence herbicidal evaluation
Assay type: in vivo, Abutilon theophrasti
Details: postemergence, rate 0.0158 kg/ha
# output: bare number, no unit

# annotated cases, reported ABUTH herbicidal rating shown
C=CCOC(=O)CC1SC(=Nc2cc(-n3c(=O)cc(C(F)(F)F)n(C)c3=O)c(F)cc2Cl)N(CC=C)C1=O (stereo not drawn) [Compound 65]; 9.0
C#CCOC(=O)CC1SC(=Nc2cc(-n3c(=O)cc(C(F)(F)F)n(C)c3=O)c(F)cc2Cl)N(CC=C)C1=O (stereo not drawn) [Compound 67]; 5.0
CC(C)C[C@@H](C(=O)O)N1C(=O)CSC1=Nc1cc(-n2c(=O)cc(C(F)(F)F)n(C)c2=O)c(F)cc1Cl [Compound 71]; 9.0
COC(=O)[C@@H](Cc1ccccc1)N1C(=O)CSC1=Nc1cc(-n2c(=O)cc(C(F)(F)F)n(C)c2=O)c(F)cc1Cl [Compound 74]; 9.0
CCOC(=O)CN1C(=O)C(Cc2ccccc2)SC1=Nc1cc(-n2c(=O)cc(C(F)(F)F)n(C)c2=O)c(F)cc1Cl (stereo not drawn) [Compound 24]; 9.0

Given CCOC(=O)CN1C(=O)C(=Cc2ccccc2)SC1=Nc1cc(-n2c(=O)cc(C(F)(F)F)n(C)c2=O)c(F)cc1Cl [Compound 19] , respond with its ABUTH herbicidal rating.
9.0

----------
Test system: ZEAMX (Corn, Field)
Assay: Postemergence herbicidal evaluation
Type: in vivo, Zea mays
Conditions: postemergence, rate 0.0156 kg/ha
Experimental: In the tests, seedling plants are grown in jiffy flats for about two weeks. The test compounds are dispersed in 50/50 acetone/water mixtures containing 0.5% TWEEN®20, a polyoxyethylene sorbitan monolaurate surfactant of Atlas Chemical Industries, in sufficient quantities to provide the equivalent of about 0.0156 kg to 0.500 kg per hectare of active compound when applied to the plants through a spray nozzle operating at 40 psi for a predetermined time. […]
property-name: Herbicidal rating ZEAMX
Lab note: jot down the number only; don't add units.

Cc1ccc(CN2C(=O)CSC2=Nc2cc(-n3c(=O)cc(C(F)(F)F)n(C)c3=O)c(F)cc2Cl)cc1Cl [Compound 149]; 4.0
Cn1c(C(F)(F)F)cc(=O)n(-c2cc(N=C3SCC(=O)N3Cc3cc(Cl)cc(Cl)c3)c(Cl)cc2F)c1=O [Compound 150]; 4.0
CN(C)c1ccc(CN2C(=O)CSC2=Nc2cc(-n3c(=O)cc(C(F)(F)F)n(C)c3=O)c(F)cc2Cl)cc1 [Compound 138]; 4.0

Return reported Herbicidal rating ZEAMX. Input molecule: CCN1C(=O)CSC1=Nc1cc(-n2c(=O)cc(C(F)(F)F)n(C)c2=O)c(F)cc1Cl [Compound 159]
5.0

Return value of Herbicidal rating ZEAMX for input CCOC(=O)CN1C(=O)C(Br)SC1=Nc1cc(-n2c(=O)cc(C(F)(F)F)n(C)c2=O)c(F)cc1Cl (stereo not drawn) [Compound 153] , no commentary.
3.0

# return recorded Herbicidal rating ZEAMX for entry CCOC(=O)CN1C(=O)C(CC(=O)O)SC1=Nc1cc(N2C(=O)CC(C(F)(F)F)CC2=O)c(F)cc1Cl (stereo not drawn) [Compound 170]
5.0

----------
System: CHEAL (Lambsquarters, Common)
Experiment: Postemergence herbicidal evaluation
Type: in vivo, Chenopodium album
Settings: postemergence, rate 0.0313 kg/ha
property-name: CHEAL herbicidal rating
Please give the numeric answer without any surrounding text.

// below: answered molecules
CCOC(=O)CN1C(=O)C(CC(=O)O)S/C1=N/c1cc(-n2c(=O)cc(C(F)(F)F)n(C)c2=O)c(F)cc1Cl (centres unmarked); 8.2
CCOC(=O)CN1C(=O)CSC1=Nc1cc(-n2c(=O)cc(C(F)(F)F)n(C)c2=O)c(F)cc1Cl; 7.5
CCOC(=O)/C=C1/S/C(=N/c2cc(-n3c(=O)cc(C(F)(F)F)n(C)c3=O)c(F)cc2Cl)N(CC(=O)OCC)C1=O; 9.0

Quote CHEAL herbicidal rating reported for C=CCN1C(=O)CSC1=Nc1cc(N2C(=O)C3=C(CCCC3)C2=O)c(F)cc1Cl please.
6.0

Report CHEAL herbicidal rating, nothing else, for this molecule: Cn1c(C(F)(F)F)cc(=O)n(-c2cc(N=C3SCC(=O)N3Cc3ccccc3)c(Cl)cc2F)c1=O
9.0

----------
Reported Preemergence herbicidal rating ORYSAT values for a set of compounds
Test system: ORYSAT (Rice, Tebonnet)
Test: Preemergence herbicidal evaluation
Type: in vivo, Oryza sativa, (L.) Tebonnet
Settings: rate 0.2500 kg/ha; rated 4-5 weeks after treatment
Give the figure by itself; no unit, no explanation.

Solved cases (5 shown):
C#CCOC(=O)CC1SC(=Nc2cc(-n3c(=O)cc(C(F)(F)F)n(C)c3=O)c(F)cc2Cl)N(CC=C)C1=O (stereo not shown); 1.0
CCOC(=O)CN1CC(=O)N(CC(=O)OCC)C1=Nc1cc(-n2c(=O)cc(C(F)(F)F)n(C)c2=O)c(F)cc1Cl; 5.0
COC(=O)[C@@H](Cc1ccccc1)N1C(=O)CSC1=Nc1cc(-n2c(=O)cc(C(F)(F)F)n(C)c2=O)c(F)cc1Cl; 1.0
Cn1c(C(F)(F)F)cc(=O)n(-c2cc(N=C3SCC(=O)N3Cc3ccccc3)c(Cl)cc2F)c1=O; 0.0
CCOC(=O)CN1C(=O)C(CCO)S/C1=N/c1cc(-n2c(=O)cc(C(F)(F)F)n(C)c2=O)c(F)cc1Cl (stereo not shown); 5.0

Provide Preemergence herbicidal rating ORYSAT, recorded with ORYSAT (Rice, Tebonnet), of Cn1c(C(F)(F)F)cc(=O)n(-c2cc(N=C3NC(=O)CS3)c(Cl)cc2F)c1=O
2.0

// fetch Preemergence herbicidal rating ORYSAT; item: COC(=O)C(Cc1ccc(Cl)cc1)N1C(=O)CSC1=Nc1cc(-n2c(=O)cc(C(F)(F)F)n(C)c2=O)c(F)cc1Cl (racemic) ; system: ORYSAT (Rice, Tebonnet)
0.0
